All values here come from paper PMC7037052.

# reported log kw, ODS; entries follow
- Assay remarks: RP-HPLC retention on Purosphere RP-18e (ODS) column, buffer pH 7.4-acetonitrile
- Format: physicochemical
- Measurement conditions: extrapolated to buffer pH 7.4 as mobile phase, 25 °C
Recorded endpoint: log kw, ODS

In [3]: df
Out[3]:
                                   compound  recorded_endpoint  value_reported
0    O=c1c(-c2ccccc2)nnc2n1CCN2c1ccc(Cl)cc1        log kw, ODS            3.41
1  O=c1c(Cc2ccc(Cl)cc2)nnc2n1CCN2c1ccc(Cl)cc1        log kw, ODS            4.02
2    Cc1cccc(N2CCn3c2nnc(-c2ccccc2)c3=O)c1C        log kw, ODS            2.74
